# Tgt: β-catenin/Tcf protein-protein interaction (Homo sapiens, UniProt P35222)
# Construct: Wild-type β-catenin (residues 138-781) were cloned into a pET-28b vector; 6×histidine (C); made in house; host or cells: E. coli BL21 DE3
# Sequence (P35222 138-781): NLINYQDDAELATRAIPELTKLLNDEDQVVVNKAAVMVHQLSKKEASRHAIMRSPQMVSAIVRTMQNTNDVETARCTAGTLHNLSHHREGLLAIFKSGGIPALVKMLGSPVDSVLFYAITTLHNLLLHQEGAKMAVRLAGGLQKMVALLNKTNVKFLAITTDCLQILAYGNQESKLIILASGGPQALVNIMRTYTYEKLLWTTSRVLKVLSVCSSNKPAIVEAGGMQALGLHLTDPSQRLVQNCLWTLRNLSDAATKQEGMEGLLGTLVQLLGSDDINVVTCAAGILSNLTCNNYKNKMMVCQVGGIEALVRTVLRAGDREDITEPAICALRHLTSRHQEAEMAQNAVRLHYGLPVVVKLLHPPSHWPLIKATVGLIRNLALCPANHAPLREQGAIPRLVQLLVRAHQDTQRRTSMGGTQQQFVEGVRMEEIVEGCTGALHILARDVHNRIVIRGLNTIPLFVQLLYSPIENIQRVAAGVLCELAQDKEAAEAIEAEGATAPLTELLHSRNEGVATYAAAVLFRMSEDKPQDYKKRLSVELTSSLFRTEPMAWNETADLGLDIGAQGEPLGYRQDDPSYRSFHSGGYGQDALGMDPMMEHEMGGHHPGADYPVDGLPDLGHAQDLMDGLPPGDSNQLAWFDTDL
# Experiment description: FP competitive inhibition assay
# Type: binding
# Condition parameters: Assay 1, mean ± SD (n = 3), read-out: Ki ± SD, Assay 1
pKi: −log10 of the molar value.
Endpoint: pKi

Compound | Endpoint | Test result
COc1ccc2sc(CCc3c(CCc4ccc(Cl)cc4)c4cc(C(=O)NCc5ccccc5Cl)ccc4n3CCc3nn[nH]n3)nc2c1 [Compound 51] | pKi | 5.44

A = COC(=O)c1ccc2c(c1)c(CCc1ccc(Cl)cc1)c(CCc1nc3cc(OC)ccc3s1)n2CCc1nn[nH]n1 [Compound 35]
B = COc1ccc2sc(CCc3c(CCc4ccc(Cl)cc4)c4cc(C(=O)NCc5ccccc5N(C)C)ccc4n3CCc3nn[nH]n3)nc2c1 [Compound 54]
Query: Lower value of pKi belongs to which: A or B ? // output: label of the selected item
Reply: A

Entry source: patent US11530186B2
